# system: Leucine-rich repeat serine/threonine-protein kinase 2 (Homo sapiens);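 note: mean percent inhibition of LRRK2 measured in the GSK PKIS kinase inhibitor set screen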
# reported-conditions: at 1 µM
Where inhibition equals or exceeds 10%, the correct label is condition met; where it does not, the label is condition not met.

See these solved cases before continuing.
| molecule | class-label |
| --- | --- |
| COc1cc(C=NNc2ncnc3c2cnn3-c2ccccc2)ccc1O | condition met |
| COc1ccc2cc(-c3c(-c4ccncc4)nc(-c4ccc([S+](C)[O-])cc4)n3C)ccc2c1 (stereo not given) | condition not met |

Please indicate if the recorded inhibition for COc1ccc(-c2ccncc2)cc1C(N)=O meets or exceeds 10%.
condition not met

====

# system: Angiopoietin-1 receptor (Homo sapiens);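 note: reported value is the mean TIE2 inhibition from the GSK PKIS dataset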
# reported-conditions: at 1 µM
Listed next: entries and their corresponding inhibition.
Field: numeric (%). Do not append units.

Example cases with answers are listed next.
| structure-as-smiles | inhibition [%] |
| --- | --- |
| Cc1nn(C)c2cc(N(C)c3ccnc(Nc4cccc(S(N)(=O)=O)c4)n3)ccc12 | 52.5 |
| CCn1c(-c2nonc2N)nc2cncc(C(=O)N3CCNCC3)c21 | 5.14 |
| COc1cc2ncn(-c3cc(OCc4ccccc4Cl)c(C(N)=O)s3)c2cc1OC | 26.9 |
| NCc1ccc(-c2nc(-c3ccc(Cl)c(O)c3)c(-c3ccncc3)[nH]2)cc1 | 21 |
| O=C1NC(=O)C(c2cccc(Cl)c2)=C1Nc1ccc(O)c(Cl)c1 | 3.61 |
| CS(=O)(=O)Nc1ccc(N/C=C2\C(=O)Nc3ccccc32)cc1 | 2.36 |
| CCCN1CCC(Oc2cc(Nc3nc(Nc4cccc(F)c4C(N)=O)c4cc[nH]c4n3)c(OC)cc2Cl)CC1 | 10.1 |
| Fc1cccc(COc2ccc(Nc3ncnc4sc(-c5cccs5)cc34)cc2Cl)c1 | 2.01 |

Tell me its inhibition given CN1CCC(C(=O)Nc2n[nH]c3nnc(-c4ccccc4)cc23)CC1 as the entry.
7

Tell me its inhibition given CN(C)c1cc2c(Nc3ccc4nc(Cc5ccccc5)[nH]c4c3)ncnc2cn1 as the entry.
4.47

Tell me its inhibition given Cc1nnc(-c2ccc(C)c(-c3ccc(C(=O)Nc4cccc(C#N)c4)cc3)c2)o1 as the entry.
5.45

Tell me its inhibition given O=C1Nc2ccc(C(=O)c3ccco3)cc2C1=Cc1cc(Cl)c(O)c(Cl)c1 as the entry.
3.01

Tell me its inhibition given COc1ccc(-c2ccncc2)cc1C(N)=O as the entry.
6.4

Tell me its inhibition given O=C1NC(=O)C(c2ccccc2Cl)=C1Nc1cccc(O)c1 as the entry.
5.97

Tell me its inhibition given O=C1NC(=O)C(c2ccc(Cl)cc2)=C1Nc1ccc(Cl)c(C(=O)O)c1 as the entry.
3.01
